Tested on: LOX IMVI melanoma
Experiment: NCI-60 one-dose screen, 48 h (100 = growth as untreated, 0 = no growth, -100 = all killed)
Settings: 10 µM unless noted
The panel holds about 83,000 compounds, 20% with a hit somewhere; the sample as a whole holds those more often.
growth below 70% gives not satisfied; growth at or above it gives satisfied.

molecule	assay target	class assignment
O=C(c1ccccc1)N(C(=S)NCCc1ccc(Cl)cc1)c1ccc(Cl)cc1	LOX IMVI melanoma	not satisfied
COc1ccc(/C=C/C(=O)c2c(C)nc3ccccc3c2/C=C/c2ccccc2)cc1O	LOX IMVI melanoma	not satisfied
Nc1nc(-c2cnccn2)nn1-c1nc2ccccc2s1	LOX IMVI melanoma	satisfied
COc1cc(C(C)n2cc(-c3ccccc3)nn2)ccc1OC1CCCCC1 (stereo not given)	LOX IMVI melanoma	not satisfied
Clc1ncccc1Nc1ccc2nnc(-c3ccncc3)n2n1	LOX IMVI melanoma	satisfied

// query Could you verify whether the entry Cc1ccc2nc(NC(=O)CSC(=S)N3CCN(c4ccccc4)CC3)sc2c1 shows growth of no less than 70%?
// result not satisfied

// query Could you verify whether the entry Brc1ccc(Nc2nc3ccccc3nc2Nc2ccc(Br)cc2)cc1 shows growth of no less than 70%?
// result not satisfied

// query Could you verify whether the entry CCCCOCc1cc(CN2CCN(C)CC2)c(O)c2ncccc12 shows growth of no less than 70%?
// result not satisfied

// query Could you verify whether the entry COc1ccc(Cn2c(Br)c3c(c2Br)-c2nc(NC(=O)c4ccc(OC)cc4)sc2CC3)cc1 shows growth of no less than 70%?
// result satisfied

// query Could you verify whether the entry COc1cc(/C=C2\CCC/C(=C\c3cc(CN4CCCCC4)c(O)c(OC)c3)C2=O)cc(CN2CCCCC2)c1O shows growth of no less than 70%?
// result not satisfied

// query Could you verify whether the entry N#C/C(=C\c1c(-c2ccccc2)[nH]c2ccccc12)C(=O)c1ccccc1 shows growth of no less than 70%?
// result not satisfied

// query Could you verify whether the entry Cc1ccc(CN2CCC(C(=O)Nc3ccc(-c4cc5ccccc5[nH]4)cc3)CC2)o1 shows growth of no less than 70%?
// result not satisfied

// query Could you verify whether the entry COc1ccc(CCN2C(=O)CCSC2=S)cc1OC shows growth of no less than 70%?
// result satisfied

// query Could you verify whether the entry CCOC(=O)c1cc2c(n1Cc1cc(OC)c(OC)c(OC)c1)-c1oncc1CCC2 shows growth of no less than 70%?
// result not satisfied

// query Could you verify whether the entry Cc1sc2ncnc(Sc3nc4ccccc4[nH]3)c2c1C shows growth of no less than 70%?
// result not satisfied

// query Could you verify whether the entry O=c1oc2ccc(Br)cc2c(=O)n1-c1ccc(Br)cc1F shows growth of no less than 70%?
// result not satisfied

// query Could you verify whether the entry COC(=O)/C(CCC=C(C)C)=C1\[C@@H](OC(C)=O)C[C@@]2(C)[C@H]1C[C@@H](O)[C@H]1[C@@]3(C)CC[C@H](NC(=O)c4cnccn4)[C@@H](C)[C@@H]3CC[C@@]12C shows growth of no less than 70%?
// result satisfied

// query Could you verify whether the entry NC(CCc1nc2ccccc2c(=O)[nH]1)C(=O)O (stereo not given) shows growth of no less than 70%?
// result satisfied

// query Could you verify whether the entry COc1ccc(C2=NN(/C=C3\SC(=O)NC3=Nc3ccc(F)cc3)C(c3ccc(F)cc3)C2)cc1 (stereo not given) shows growth of no less than 70%?
// result satisfied

// query Could you verify whether the entry CC[C@H](C)[C@@H](C(=O)OC)n1cc(CNC(=O)[C@@H](Cc2ccccc2)NC(=O)OCc2ccccc2)nn1 shows growth of no less than 70%?
// result satisfied
